# study-system: T1, CD22 (UniProtKB-P20273) on CD22(+) cells (human, UniProt P20273 20-847)
# T1 construct: Endogenous CD22 on the NALM6 and Raji cell lines; also called SIGLEC-2; BL-CAM
# T1 sequence: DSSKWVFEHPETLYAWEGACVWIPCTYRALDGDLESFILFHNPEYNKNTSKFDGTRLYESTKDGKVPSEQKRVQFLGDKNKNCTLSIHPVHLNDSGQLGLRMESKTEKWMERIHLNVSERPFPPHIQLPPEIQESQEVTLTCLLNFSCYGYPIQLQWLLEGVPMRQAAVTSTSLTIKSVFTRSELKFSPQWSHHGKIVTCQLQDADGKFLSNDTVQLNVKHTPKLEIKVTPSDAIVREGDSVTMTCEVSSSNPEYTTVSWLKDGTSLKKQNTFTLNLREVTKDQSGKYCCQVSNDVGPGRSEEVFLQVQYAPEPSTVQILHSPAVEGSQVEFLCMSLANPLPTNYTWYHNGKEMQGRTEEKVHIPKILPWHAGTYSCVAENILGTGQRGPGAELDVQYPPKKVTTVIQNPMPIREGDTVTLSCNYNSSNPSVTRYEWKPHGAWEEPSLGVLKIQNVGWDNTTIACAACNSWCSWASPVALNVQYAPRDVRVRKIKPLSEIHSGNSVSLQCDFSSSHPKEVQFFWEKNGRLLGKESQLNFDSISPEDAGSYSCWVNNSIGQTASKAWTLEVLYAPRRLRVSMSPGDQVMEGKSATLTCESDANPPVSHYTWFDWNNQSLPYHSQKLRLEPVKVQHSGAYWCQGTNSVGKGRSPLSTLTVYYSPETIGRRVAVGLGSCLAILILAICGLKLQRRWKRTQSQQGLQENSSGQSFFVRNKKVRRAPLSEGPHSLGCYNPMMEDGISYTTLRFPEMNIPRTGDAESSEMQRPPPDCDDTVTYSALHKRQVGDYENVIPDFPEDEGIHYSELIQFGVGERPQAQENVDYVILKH
# protocol-details: flow cytometry on CD22(+) NALM6 cells
measured-metric: MFI (FACS NALM6)
Simply state the number, no unit and no words.

Solved cases (6 shown):
{"binder": "humanized LL2 L2 + H4 (antibody, V domains shown, Human IgG1 frameworks) VH: QVQLQQSGAEVKKPGASVKMSCKASGYTFTSYWLHWIRQAPGQRLEWMGYINPRNDYTEYNQKFQGRATITADKSASTAYMELSSLRSEDTAVYYCARRDITTFYWGQGTTLTVSS VL: DIVLTQSPDSLAVSLGERVTMNCKSSQSVLYSANHKNYLAWYQQKPGQSPKLLIYWASTRESGVPDRFSGSGSGTDFTLTISSVQAEDVAIYYCHQYLSSWTFGGGTKLEIK", "MFI (FACS NALM6)": 35.9}
{"binder": "humanized LL2 L2 + H7 (antibody, V domains shown, Human IgG1 frameworks) VH: QVQLVESGAEVKKPGASVKVSCKASGYTFTSYWLHWVRQAPGQRLEWMGYINPRNDYTEYNQNFKDRATITRDTSASTAYMELSSLRSEDTAVYYCARRDITTFYWGQGTTLTVSS VL: DIVLTQSPDSLAVSLGERVTMNCKSSQSVLYSANHKNYLAWYQQKPGQSPKLLIYWASTRESGVPDRFSGSGSGTDFTLTISSVQAEDVAIYYCHQYLSSWTFGGGTKLEIK", "MFI (FACS NALM6)": 27.3}
{"binder": "humanized LL2 L2 + H5 (antibody, V domains shown, Human IgG1 frameworks) VH: QVQLQESGAEVKKPGASVKVSCKASGYTFTSYWLHWVRQAPGQRLEWIGYINPRNDYTEYSQKFQGRATLTADTSASTAYMELSSLRSEDTAVYYCARRDITTFYWGQGTTLTVSS VL: DIVLTQSPDSLAVSLGERVTMNCKSSQSVLYSANHKNYLAWYQQKPGQSPKLLIYWASTRESGVPDRFSGSGSGTDFTLTISSVQAEDVAIYYCHQYLSSWTFGGGTKLEIK", "MFI (FACS NALM6)": 40.4}
{"binder": "humanized LL2 L2 + H2 (antibody, V domains shown, Human IgG1 frameworks) VH: QVQLQESGAEVKKPGASVKMSCKASGYTFTSYWLHWIRQAPGQRLEWIGYINPRNDYTKYSQKFQGRVTLTRDKSASTAYMELSSLRSEDTAVYYCARRDITTFYWGQGTTLTVSS VL: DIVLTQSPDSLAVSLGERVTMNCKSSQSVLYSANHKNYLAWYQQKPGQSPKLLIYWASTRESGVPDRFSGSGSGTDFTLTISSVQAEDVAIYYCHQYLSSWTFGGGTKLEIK", "MFI (FACS NALM6)": 28.1}
{"binder": "humanized LL2 L2 + H6 (antibody, V domains shown, Human IgG1 frameworks) VH: QVQLQQSGAEVKKPGASVKVSCKASGYTFTSYWLHWIRQAPGQRLEWMGYINPRNDYTEYNQNFKDRVTITRDTSASTAYMELSSLRSEDTAVYYCARRDITTFYWGQGTTLTVSS VL: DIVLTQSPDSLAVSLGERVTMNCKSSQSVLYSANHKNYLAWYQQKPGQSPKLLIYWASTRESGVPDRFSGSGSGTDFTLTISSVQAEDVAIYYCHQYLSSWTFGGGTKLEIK", "MFI (FACS NALM6)": 36.1}
{"binder": "humanized LL2 L2 + H3 (antibody, V domains shown, Human IgG1 frameworks) VH: QVQLQQSGAEVKKPGASVKVSCKASGYTFTSYWLHWIRQAPGQRLEWIGYINPRNDYTEYSQKFQGRATLTADTSASTAYMELSSLRSEDTAVYYCARRDITTFYWGQGTTLTVSS VL: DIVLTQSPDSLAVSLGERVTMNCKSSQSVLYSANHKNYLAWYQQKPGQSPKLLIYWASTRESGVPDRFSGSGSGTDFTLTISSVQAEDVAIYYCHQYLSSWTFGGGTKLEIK", "MFI (FACS NALM6)": 36.8}

Next binder, please.
Q: What does the record list as MFI (FACS NALM6) for humanized LL2 L1 + H5 (antibody, V domains shown, Human IgG1 frameworks; also called H5L1) VH: QVQLQESGAEVKKPGASVKVSCKASGYTFTSYWLHWVRQAPGQRLEWIGYINPRNDYTEYSQKFQGRATLTADTSASTAYMELSSLRSEDTAVYYCARRDITTFYWGQGTTLTVSS VL: DIVLTQSPDSLAVSAGERVTMNCKSSQSVLYSANHKNYLAWYQQKPGQPPKLLIYWASTRESGVPDRFSGSGSGTDFTLTISSVQAEDVAIYYCHQYLSSWTFGGGTKLEIK ?
A: 35.2
